# Tested on: 931267-113-T-J1-PDC KRAS spheroid with HUVEC/MSC, viability;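 also: compound exposure lasted 7 days before the readout; 100% = DMSO vehicle control viability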
# procedure_details: Anticancer human tumor 931267-113-T-J1-PDC patient-derived colon adenocarcinoma cell line growth inhibition [KRAS2]
# condition: second compound 1 µM; first compound 0.1 µM; active compounds read low
observation_type: viability, T/C (%)
Field format: number, assumed %, no unit text.

* Cn1nccc1Nc1nccc(-c2cc3c(s2)C(C)(C)N(CCN2CCOCC2)C3=O)n1 + COc1cc2nc(C)nc(NC(C)c3cc(N)cc(C(F)(F)F)c3)c2cc1OC1CCOC1 | 73.6
* COC(=O)c1ccc2c(C(=Nc3ccc(N(C)C(=O)CN4CCN(C)CC4)cc3)c3ccccc3)c(O)[nH]c2c1 + C=CC(=O)N1CCN(c2nc(=O)n(-c3c(C)ccnc3C(C)C)c3nc(-c4c(O)cccc4F)c(F)cc23)C(C)C1 | 116
* CC(C)n1nc(-c2ccc3oc(N)nc3c2)c2c(N)ncnc21 + COc1cc2nc(C)nc(NC(C)c3cc(N)cc(C(F)(F)F)c3)c2cc1OC1CCOC1 | 23.9

The recorded viability, T/C for entry CC1COCCN1c1cc(-c2ccnn2C)c2ccnc(-c3ccn[nH]3)c2n1 (stereo not given) + CC1OCC2(CCN(c3cnc(Sc4ccnc(N)c4Cl)c(N)n3)CC2)C1N equals 29.6

Entry CC(=O)OC12COC1CC(O)C1(C)C(=O)C(O)C3=C(C)C(OC(=O)C(O)C(NC(=O)OC(C)(C)C)c4ccccc4)CC(O)(C(OC(=O)c4ccccc4)C21)C3(C)C (stereo not given) + C=CC(=O)N1CCN(c2nc(=O)n(-c3c(C)ccnc3C(C)C)c3nc(-c4c(O)cccc4F)c(F)cc23)C(C)C1 ; viability, T/C = 103
